For each record, write down the corresponding Average activity.
- Test system: Human immunodeficiency virus 1
- Assay Details: HIV antiviral activity
- Type: functional
Respond with the number and no other words.

Q: Data request, read-out Average activity, for CCC(Cl)CC
Ans: 56

Q: Repeat for the following molecule: C=C/C=C\C=C\[PH](=O)/C=C/C (centres undefined)
Ans: 51

Q: Repeat for the following molecule: C=CC(=C\C)/N=C(\C)S
Ans: 60

Q: Repeat for the following molecule: CCC(F)CC
Ans: 56

----------
- Tested on: Human immunodeficiency virus 1
- Assay Details: HIV antiviral activity
- Assay type: functional
Result Type: Average activity

Q: Data request, read-out Average activity, for CCC1OC1C (stereo not drawn)
Ans: 56

Q: Repeat for the following compound: CC(=O)NC(=O)N(C)C1CCC(N=[N+]=[N-])O1 (stereo not drawn)
Ans: 64

Q: Repeat for the following compound: C=C/C=C/C=C/S(=O)(=O)/C=C/C
Ans: 51

Q: Repeat for the following compound: C=C/C=C\C=C\[S+]([O-])/C=C/C (stereo not drawn)
Ans: 51

Q: Repeat for the following compound: C=C/C(=C\C)C(=O)N/C(C)=C/C
Ans: 37

Q: Repeat for the following compound: C=C/C(=C\C)NC(C)=O
Ans: 60

Q: Repeat for the following compound: C=C/C=C\C=C\C(=O)/C=C/C
Ans: 51

Q: Repeat for the following compound: CCC(I)CC
Ans: 56
